Where these numbers come from: paper PMC10144566

assay: PAMPA-BBB permeability; format: in vitro ADME; settings: PAMPA, PAMPA-BBB classification: absorbed by the Central Nervous System; read-out: CNS Permeability
Quick reference: Papp of the listed items.

COc1cc(C(=O)N/N=C/c2cc3ccccc3s2)cc(OC)c1OC [LASSBio-1920]    > 3.47 ×10⁻⁶ cm/s

With those in mind, consider the next compound.
Tell me Papp reported for CCn1cc(C(=O)O)c(=O)c2cc(F)c(N3CCNCC3)nc21 [Enoxacin]
< 1.13 ×10⁻⁶ cm/s

---

system: PC-3, prostate adenocarcinoma; experiment: MTT cytotoxicity assay, PC-3; conditions: Homo sapiens, 72 h, read-out: IC50 (95% CI) PC-3
Observation Type: IC50 (nM)
Unit nM implied. Number only.

COc1cc(C(=O)N/N=C/c2cc3ccccc3s2)cc(OC)c1OC    1680

Under PC-3, prostate adenocarcinoma, report IC50 for COc1cc(C(=O)NN=Cc2ccccc2)cc(OC)c1OC
920

Write IC50 of COc1ccc(/C=C\c2cc(OC)c(OC)c(OC)c2)cc1O ; system used: PC-3, prostate adenocarcinoma
8
